Taken from patent US8580852B2.

- test.target: GVIA iPLA2 (Homo sapiens, UniProt O60733)
- Sequence (O60733 whole entry): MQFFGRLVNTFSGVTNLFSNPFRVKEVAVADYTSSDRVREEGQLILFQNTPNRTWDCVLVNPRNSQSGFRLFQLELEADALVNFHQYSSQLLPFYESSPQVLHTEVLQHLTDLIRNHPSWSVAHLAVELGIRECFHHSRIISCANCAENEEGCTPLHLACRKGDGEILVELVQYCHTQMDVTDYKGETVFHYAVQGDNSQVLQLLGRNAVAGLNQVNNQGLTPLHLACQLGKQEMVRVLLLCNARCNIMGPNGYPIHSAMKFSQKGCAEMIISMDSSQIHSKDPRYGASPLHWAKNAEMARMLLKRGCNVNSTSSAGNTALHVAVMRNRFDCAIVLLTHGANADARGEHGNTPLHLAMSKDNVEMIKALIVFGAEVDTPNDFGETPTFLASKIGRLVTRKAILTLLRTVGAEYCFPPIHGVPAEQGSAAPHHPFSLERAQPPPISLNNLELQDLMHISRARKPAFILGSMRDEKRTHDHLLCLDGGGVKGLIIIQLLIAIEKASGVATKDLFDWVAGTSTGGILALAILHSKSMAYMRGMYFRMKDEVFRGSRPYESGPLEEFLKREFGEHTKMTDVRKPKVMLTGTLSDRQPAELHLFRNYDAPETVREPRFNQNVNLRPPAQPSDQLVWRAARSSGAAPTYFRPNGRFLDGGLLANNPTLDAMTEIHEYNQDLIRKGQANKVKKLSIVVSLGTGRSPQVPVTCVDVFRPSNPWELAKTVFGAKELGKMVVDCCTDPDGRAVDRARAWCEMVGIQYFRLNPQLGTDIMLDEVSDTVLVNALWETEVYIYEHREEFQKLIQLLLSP
- assay.overview: In vitro PLA2 mixed micellar assay (modified Dole assay), GVIA iPLA2
- Type: biochemical
- test.conditions: at 0.091 mole fraction of inhibitor, n = 3
- Description: FIG. 3 illustrates the dose-response curves for 2-oxoamide inhibitors of GVIA iPLA2. Inhibition of the activity of human GVIA iPLA2 by inhibitors (a) 8a and (b) 13 was tested on mixed-micelles containing 100 μM PAPC and 400 μM Triton X-100. […] All the inhibitors synthesized in this work were tested for inhibition of GIVA cPLA2, GVIA iPLA2 and GV sPLA2 using mixed micellar assays. […] Initially, the percent inhibition of each PLA2 at 0.091 mole fraction of inhibitor was determined. […]
value.type: GVIA iPLA2 % inhibition

                               smiles_input               value_type  measurement
0  CCCCCCCCCCCCCCC(=O)C(=O)N[C@@H](CCCC)COCC(=O)OC(C)(C)C  GVIA iPLA2 % inhibition          81%
